Measured values drawn from the NIST ThermoML archive (doi:10.1016/j.jct.2017.12.012) for this set.

Catalogue of compounds with associated activity coefficient
experiment: activity coefficient (dimensionless); of the first substance listed, at infinite dilution; xn = mol fraction of the nth substance listed; settings: 323.15 K; 101.33 kPa; Liquid; Chromatography; x1 = 0
Hey, just send me the number, nothing else.

Ask | Query (compound): C=CCCCC [hex-1-ene] + CCCCCCCCn1cc[n+](C)c1C.O=S(=O)([N-]S(=O)(=O)C(F)(F)F)C(F)(F)F ; field requested: activity coefficient
Reply | 4.26

Ask | Here is the next compound: C1CCOC1 [tetrahydrofuran] + CCCCCCCCn1cc[n+](C)c1C.O=S(=O)([N-]S(=O)(=O)C(F)(F)F)C(F)(F)F
Reply | 0.48

Ask | Here is the next compound: Cc1ccccc1 [toluene] + CCCCCCCCn1cc[n+](C)c1C.O=S(=O)([N-]S(=O)(=O)C(F)(F)F)C(F)(F)F
Reply | 0.94

Ask | Here is the next compound: CCO [ethanol] + CCCCCCCCn1cc[n+](C)c1C.O=S(=O)([N-]S(=O)(=O)C(F)(F)F)C(F)(F)F
Reply | 1.49

New cases:
Ask | Query (compound): CC#N [acetonitrile] + CCCCCCCCn1cc[n+](C)c1C.O=S(=O)([N-]S(=O)(=O)C(F)(F)F)C(F)(F)F ; field requested: activity coefficient
Reply | 0.45
